Each recorded value in this set is attributed to patent US20060062761A1.

# TESTED_SYSTEM: HLA-DR DRB1*0701 on fixed MOU (MANN) cells (human)
# TEST_DETAILS: competition
# CONDITION_SUMMARY: modification not given
Assign IC50 to each entry below.

Request: Item LKEKKYSPCAWEVVR [44] has what recorded IC50?
Result: > 500 µM

Request: Consider the binder shown here: TLYLKEKKYSPCAWE [43] What is its recorded IC50?
Result: > 500 µM

Request: So what's the measured IC50 for this one? VGVTETPLMKEDSIL [35]
Result: > 500 µM
